# Tested on: Hs-578T
# methodDescription: NCI tumour cell line growth inhibition, 48 h
The source made the active and inactive calls. Cut-off read from the data, not from the text of the source: active = GI50 up to about 1.1 µM and inactive = higher.
Parameter call: string, one of t for active, f for inactive

In: Outcome? CN1C(=O)CC(=O)N1/C(=C/c1ccccc1)c1ccccc1
Out: f

In: Outcome? CC(=O)Oc1ccc(C(c2ccc(OC(C)=O)cc2)c2ccccn2)cc1
Out: t

In: Outcome? O=C(O)CCC(=O)c1ccc2c(c1)C(C(=O)O)CC2 (configuration not stated)
Out: f

In: Outcome? O=C(CNc1ccc2c(=S)c3ccccc3[nH]c2c1)Nc1ccccc1-c1ccccc1NC(=O)CNc1ccc2c(=S)c3ccccc3[nH]c2c1
Out: f

In: Outcome? Cc1ccc2c(O)cc(-c3cccc4ccccc34)nc2n1
Out: t

In: Outcome? CN(C1=NCCO1)c1cccc2ccccc12
Out: f

In: Outcome? Cc1cc(=O)n2nc(CCl)sc2n1
Out: f

In: Outcome? CC(C)=CCOc1cc(NC(=S)c2ccoc2C)ccc1Cl
Out: f

In: Outcome? CC(C)(O)C1OCC(C2CCC3(C)C4=CCC5C(C)(C)C(O)CCC5(C)C4CCC23C)CC1O (configuration not stated)
Out: f

In: Outcome? CC#C[C@]1(O)CCC2[C@@H]3CCC4=CC(=O)CCC4=C3[C@@H](c3ccc(N(C)C)cc3)C[C@@]21C (some centres not stated)
Out: f

In: Outcome? N#CC12COC3(CCCCC3C1(C#N)C#N)OC2=N (configuration not stated)
Out: f

In: Outcome? CC(C)C1=C(O)C(=O)C2=C(C1=O)C(O)CC1C(C)(C)CCCC21C (configuration not stated)
Out: f

In: Outcome? S=C(NCCc1ccccn1)c1nc[nH]c1C(=S)NCCc1ccccn1
Out: f

In: Outcome? CCOC(=O)CCC1(CCC(=O)OCC)CCCCCCCCC(CCC(=O)OCC)(CCC(=O)OCC)C(=O)C1=O
Out: f

In: Outcome? O=c1cc2oc3ccc4ccccc4c3cc-2c(=O)[nH]1
Out: f

In: Outcome? CC(C)C1CSC2N1C(=O)C2(OCc1ccccc1)C1CC1 (configuration not stated)
Out: f

In: Outcome? COC(=O)c1ccccc1NC(=O)/C(=N\NC(C)(C)C)C(C#N)c1nc(-c2ccc([N+](=O)[O-])cc2)cs1 (configuration not stated)
Out: f

In: Outcome? Cn1cnc(N)c(N=O)c1=O
Out: f

In: Outcome? NS(=O)(=O)c1ccc(-c2ccc([As](=O)(O)O)cc2)cc1
Out: f

In: Outcome? C=CCn1c(-c2ccc(Cl)cc2Cl)cs/c1=N\c1c(C)n(C)n(-c2ccccc2)c1=O
Out: f

In: Outcome? O=C(O)c1cccc(/[As]=[As]\c2cccc(C(=O)O)c2)c1 (configuration not stated)
Out: f

In: Outcome? CCN(CC)CCNc1c2ccccc2nc2cccc([N+](=O)[O-])c12
Out: t
